Reference for the values: PubChem BioAssay (NCI)

system: HL-60(TB) leukemia; experiment: NCI tumour cell line growth inhibition, 48 h
This section presents molecules with their documented TGI values.
parameter: TGI

>>> result("O=C(COc1ccccc1Cl)N1N=C(c2ccc(Cl)cc2)CC1(O)c1ccccc1 (stereo unspecified)")
"> 100 µM"
>>> result("C/C(CC(O)(C(F)(F)F)C(F)(F)F)=N\\NC(N)=O")
"> 10 µM"
>>> result("c1ccc(-c2csc3c4ccccc4c4ccccc4[n+]23)cc1")
"> 35 µM"
>>> result("Cn1c(=O)c2c(nc3n(CC(O)CCl)c(=O)ccn23)n(C)c1=O (stereo unspecified)")
"> 100 µM"
>>> result("CCSCCCSCCSCC")
"> 100 µM"
>>> result("N=C1C(O)C2(I)c3ccccc3N3C(=N)C(O)C4c5ccccc5N1C4C32 (stereo unspecified)")
"79.4 µM"
>>> result("COc1ccc(C2=Nn3c(nnc3-c3cc(Cl)cc(Cl)c3Cl)SC2)cc1")
"2.03 µM"
>>> result("COc1cccc(-c2nc3cc(NC(=O)c4ccc(Cl)c(C#N)c4)ccc3o2)c1")
"> 100 µM"
>>> result("COc1cc(/C=C/C(=O)c2c(C)nc3ccccc3c2/C=C/c2ccccc2)cc(OC)c1OC")
"6 µM"
>>> result("COc1cc2c(c(O)c1O)C(=O)C1CCC(=O)N1C2c1cccc2ccccc12 (stereo unspecified)")
"> 50 µM"
>>> result("Cc1ccc(C(=N)c2ccccc2Cc2cccc3ccccc23)c2ccccc12")
"> 100 µM"

###

system: MCF7 breast; assay: NCI tumour cell line growth inhibition, 48 h
This section presents compounds with their documented GI50 values.
parameter: GI50

>>> result("COc1ccc(-c2noc(C(=O)O)c2-c2cc(OC)c(OC)c(OC)c2)cc1")
"1340 nM"
>>> result("COc1ccc(C2=Nn3c(nnc3-c3cc(Cl)cc(Cl)c3Cl)SC2)cc1")
"326 nM"
>>> result("C/C(=N/O)c1cccc(Nc2cc(-n3nnc4ccccc43)nc3ccccc23)c1")
"14400 nM"
>>> result("C=C1CCC2C3(C)COC(C)(C)OC3CCC2(C)C1C/C=C1/C(=O)OCC1OC(C)=O (stereo not given)")
"1760 nM"
>>> result("CC1CC(C)CC(C)C(O)/C(C#N)=C/C=C/CC(C2CCCC2C(=O)O)OC(=O)CC(O)C(C)C1 (stereo not given)")
"6.14 nM"
>>> result("Nc1nc2ccc(-c3nc4ccc5[nH]ncc5c4c4c3CCC4)cc2s1")
"165 nM"
>>> result("O=S(=O)(Nc1ccc(Br)cc1)c1ccc(-c2cnc(C3CC3)o2)cc1")
"651 nM"
>>> result("O=C(/C=C(/C=C/c1ccc2[nH]ccc2c1)OB(F)F)/C=C/c1ccc2[nH]ccc2c1")
"376 nM"
>>> result("O=C(Oc1cccnc1)c1cccnc1Nc1ccnc(C(F)(F)F)c1")
"2680 nM"
>>> result("COc1cc(C)ccc1C(=O)c1ccc(C)cc1OC")
"920 nM"

###

system: SK-OV-3 ovarian; experiment: NCI tumour cell line growth inhibition, 48 h; in the data active = GI50 below about 0.43 µM; inactive = the rest
Labels: active, inactive

>>> assigned_category("c1ccc(-c2nc(-c3ccccn3)nc(-c3ccccn3)n2)nc1")
"inactive"
>>> assigned_category("O=C(O)c1nc(NCc2nc3cc(Cl)ccc3o2)n[nH]1")
"inactive"
>>> assigned_category("CO/N=C(\\COc1ccc2c(c1)[nH]c1ccccc12)c1ccc(OC)cc1")
"inactive"
>>> assigned_category("N#CC(C#N)=C/C=C(\\Cl)c1ccc(Cl)cc1")
"inactive"
>>> assigned_category("CCc1c2c(nc3ccc(OCc4ccc(B(O)O)cc4)cc13)-c1cc3c(c(=O)n1C2)COC(=O)[C@]3(O)CC")
"active"
